Reference source: patent US11566007B2

# measured-on: KRAS WT (Homo sapiens (Human), UniProt P01116+P62937)
# Sequence (P01116-2 other isoform, or with tags, fused parts or gaps): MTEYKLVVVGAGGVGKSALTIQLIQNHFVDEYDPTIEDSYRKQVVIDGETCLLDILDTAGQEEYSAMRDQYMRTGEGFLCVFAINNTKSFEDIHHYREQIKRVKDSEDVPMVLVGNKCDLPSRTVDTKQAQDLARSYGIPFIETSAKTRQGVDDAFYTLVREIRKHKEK
# Sequence (P62937 whole entry): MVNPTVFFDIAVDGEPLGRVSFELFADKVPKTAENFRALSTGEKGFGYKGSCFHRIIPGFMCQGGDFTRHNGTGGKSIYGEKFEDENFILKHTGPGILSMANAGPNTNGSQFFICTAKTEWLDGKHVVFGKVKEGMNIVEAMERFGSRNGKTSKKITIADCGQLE
# test-summary: Ras-Raf (BRAF RBD) disruption / FRET / MOA assay, KRAS WT
# Format: biochemical
# experimental-conditions: read-out: IC50* KRAS WT FRET data
pIC50: −log10 of the molar value.
result-type: pIC50

[
  {
    "molecule": "C=CC(=O)N1CC[C@](C#N)(C(=O)N(C)[C@H](C(=O)N[C@H]2Cc3cccc(c3)-c3ccc4c(c3)c(c(-c3cccnc3[C@H](C)OC)n4CC)CC(C)(C)COC(=O)[C@@H]3CCCN(N3)C2=O)C(C)C)C1 (atropisomer, axis not shown) [Example A443]",
    "result": "5.00 to 6.00"
  },
  {
    "molecule": "C/C=C(\\C)S(=O)(=O)N1CC[C@H](C(=O)N(C)[C@H](C(=O)N[C@H]2Cc3cccc(c3)-c3ccc4c(c3)c(c(-c3cccnc3[C@H](C)OC)n4CC)CC(C)(C)COC(=O)[C@@H]3CCCN(N3)C2=O)C(C)C)C1 (atropisomer, axis not shown) [Example A308]",
    "result": "< 5.00"
  },
  {
    "molecule": "CCn1c(-c2cccnc2[C@H](C)OC)c2c3cc(ccc31)N1CCO[C@@](C)(C[C@H](NC(=O)[C@H](C(C)C)N(C)C(=O)C3(F)CCN(C(=O)C#CC(C)(C)N(C)C)CC3)C(=O)N3CCC[C@H](N3)C(=O)OCC(C)(C)C2)C1 [Example A550]",
    "result": "6.00 to 7.00"
  },
  {
    "molecule": "CCn1c(-c2cccnc2COC)c2c3cc(ccc31)-c1cc(O)cc(c1)C[C@H](NC(=O)[C@H](C(C)C)N(C)C(=O)[C@H]1C[C@@H](C)N(C(=O)C#CCN(C)C)C1)C(=O)N1CCC[C@H](N1)C(=O)OCC(C)(C)C2 [Example A175]",
    "result": "5.00 to 6.00"
  },
  {
    "molecule": "C=CC(=O)N1CCO[C@H]2CN(C(=O)N(C)[C@H](C(=O)N[C@H]3CC4=NN=C(O4)c4ccc5c(c4)c(c(-c4cccnc4[C@H](C)OC)n5CC(F)(F)F)CC(C)(C)COC(=O)[C@@H]4CCCN(N4)C3=O)C(C)C)C[C@H]21 (atropisomer, axis not shown) [Example A576]",
    "result": "5.00 to 6.00"
  }
]

Query: Consider the molecule shown here: C=CC(=O)N1CC[C@H](C(=O)N(C)[C@H](C(=O)N[C@H]2Cc3cccc(c3)-c3ccc4c(c3)c(c(-c3cccnc3[C@H](C)OC)n4CC)CC(C)(C)COC(=O)[C@@H]3CCCN(N3)C2=O)C(C)C)[C@H]1C (atropisomer, axis not shown) [Example A373] What is its recorded pIC50?
Reply: 5.00 to 6.00

Query: Consider the molecule shown here: C=CC(=O)N1CC[C@]2(C1)OCN([C@H](C(=O)N[C@H]1Cc3cccc(c3)-c3ccc4c(c3)c(c(-c3cccnc3[C@H](C)OC)n4CC)CC(C)(C)COC(=O)[C@@H]3CCCN(N3)C1=O)C(C)C)C2=O (atropisomer, axis not shown) [Example A371] What is its recorded pIC50?
Reply: 5.00 to 6.00

Query: Consider the molecule shown here: CC#CC(=O)N1CC2(CCN2C(=O)N(C)[C@H](C(=O)N[C@H]2Cc3nc(cs3)-c3ccc4c(c3)c(c(-c3cccnc3[C@H](C)OC)n4CC)CC(C)(C)COC(=O)[C@@H]3CCCN(N3)C2=O)C(C)C)C1 (atropisomer, axis not shown) [Example A655] What is its recorded pIC50?
Reply: 6.00 to 7.00
